Tested on: Yap1 mRNA
experimentalDetails: Antisense inhibition of human Yap1 in SNU-449 cells by modified oligonucleotides, single dose (Example 5, RTS36584)
Assay type: cell-based
conditionNotes: Table 42 (separate experiment); SNU-449 cells, 10,000 cells per well, free uptake, 2,000 nM modified oligonucleotide, approximately 48 hours; RTS36584; normalized to RIBOGREEN; Yap1 mRNA relative to untreated control cells
Strand notation (5' to 3'): a small letter for the sugar, then the base; units joined by * are phosphorothioate-linked, units joined directly phosphodiester-linked; [ ] holds rarer units or linkages, { } end groups; capitals alone tell only the bases. e = 2'-O-(2-methoxyethyl) (MOE); k = constrained ethyl (cEt); [5mC] = 5-methylcytosine; d = 2'-deoxy (DNA)
Field: YAP1 (% UTC). Provide a value for each of the substances that follow.
Output spec: scalar in % UTC, unitless text.

Lookup: YAP1 (% UTC) / Yap1 mRNA / 1198210 (kT*kT*dA*dG*dA*dG*dT*dA*dT*dG*dT*eG*eG*e[5mC]*kA*kA; antisense) [Compound 1198210] 28

Notebook entry, Yap1 mRNA assay: YAP1 (% UTC) of 1198700 (kT*kA*dA*dA*dG*dT*dG*dT*dA*dT*dG*dT*k[5mC]*eA*kG*eA; antisense) [Compound 1198700] = ? 26

Query YAP1 (% UTC) on Yap1 mRNA for 1198205 (kA*kT*dG*dG*dA*dA*dA*dT*dT*dG*dT*e[5mC]*eT*e[5mC]*kA*kT; antisense) [Compound 1198205] 64

Give recorded YAP1 (% UTC) with Yap1 mRNA for the following substance: 1095482 (antisense k[5mC]*kT*dG*dA*dG*dG*dT*dA*dT*dA*dA*d[5mC]*kT*eG*kG*eG) [Compound 1095482] 72

Record lookup: for Yap1 mRNA, what YAP1 (% UTC) belongs to 1198713 (kT*kT*dA*dG*dA*d[5mC]*dT*dA*dA*dG*dT*dA*kA*eG*kG*eT; antisense) [Compound 1198713] ? 62

Which measured YAP1 (% UTC) belongs to 1198224 (kA*k[5mC]*dT*dT*dT*dT*dA*d[5mC]*dA*dT*dT*eA*eG*eG*kA*kA) [Compound 1198224] , tested on Yap1 mRNA? 74

Short answer please: YAP1 (% UTC), Yap1 mRNA, entry 1198704 (kA*kA*d[5mC]*dT*dT*dT*dA*dA*dA*dG*dT*dG*kT*eA*kT*eG; antisense) [Compound 1198704] 72

###

Tested on: Yap1 mRNA
experimentalDetails: Dose-dependent inhibition of human Yap1 in SNU-449 cells (Example 9, RTS36584)
Format: cell-based
conditionNotes: free uptake, linear regression on a log/linear plot
Strand notation (5' to 3'): a small letter for the sugar, then the base; units joined by * are phosphorothioate-linked, units joined directly phosphodiester-linked; [ ] holds rarer units or linkages, { } end groups; capitals alone tell only the bases. e = 2'-O-(2-methoxyethyl) (MOE); k = constrained ethyl (cEt); [5mC] = 5-methylcytosine; d = 2'-deoxy (DNA); m = 2'-O-methyl
quantityMeasured: pIC50
Scale: pIC50 equals -log10([C]), with [C] in mol/L.

Quick one: pIC50 for 1198697 (kA*kG*dT*dG*dT*dA*dT*dG*dT*d[5mC]*dA*dG*kA*eA*kG*eA) [compound 1198697] ? 7.40

I have this substance here, 1197271 (kT*kT*kT*dA*mA*dA*dG*dT*dG*dT*dA*dT*dG*kT*k[5mC]*kA; antisense) [compound 1197271] , and I need its recorded pIC50. 7.00

Quick check: pIC50 of 1198501 (kG*kA*dT*dT*dT*dA*dG*dG*dA*dT*dG*e[5mC]*kA*eT*kG*eG; antisense) [compound 1198501] ? 7.00

Recorded pIC50 for 1198356 (kT*kA*kA*dA*dG*dT*dG*dT*dA*dT*dG*dT*k[5mC]*eA*kG*eA; antisense) [compound 1198356] , please? 7.00

Reported pIC50 for 1198959 (kA*kG*dT*dG*dT*dA*dT*dG*dT*d[5mC]*dA*kG*dA*kA*dG*kA; antisense) [compound 1198959] : what is it? 7.40

pIC50 lookup needed for 1198352 (kT*kG*kT*dA*dT*dG*dT*d[5mC]*dA*dG*dA*dA*kG*eA*kG*eT; antisense) [compound 1198352] , thanks. 7.40

May I ask what pIC50 has been recorded for 1198289 (kG*kG*kA*dA*dA*dT*dT*dG*dT*d[5mC]*dT*d[5mC]*kA*eT*kG*e[5mC]; antisense) [compound 1198289] ? 7.00

Request the reported pIC50 associated with 1198371 (kA*dT*dT*dG*dT*d[5mC]*dT*d[5mC]*dA*dT*dG*k[5mC]*e[5mC]*kT*eT*kA; antisense) [compound 1198371] 6.52

Which pIC50 reading was recorded for the substance 1198578 (GCTTTGGAAGATCTGA; modified gapmer, chemistry not fully specified) [compound 1198578] ? 7.00

Fill in: pIC50 of 1198605 (GTAATATTGCAATCTG; modified gapmer, further chemistry not given here) [compound 1198605] is ___ 7.52

###

For each record, write down the corresponding YAP1 (% UTC).
Tested on: Yap1 mRNA
experimentalDetails: Antisense inhibition of human Yap1 in A-431 cells by cEt gapmers, single dose (Example 4, RTS4814)
Assay type: cell-based
conditionNotes: Yap1 mRNA remaining as percent of untreated control; 3-10-3 cEt gapmers; A-431 cells; Table 36
Strand notation (5' to 3'): a small letter for the sugar, then the base; units joined by * are phosphorothioate-linked, units joined directly phosphodiester-linked; [ ] holds rarer units or linkages, { } end groups; capitals alone tell only the bases. k = constrained ethyl (cEt); [5mC] = 5-methylcytosine; d = 2'-deoxy (DNA)
Use % UTC as the unit, but write only the number.

Need YAP1 (% UTC) of 1074934 (antisense k[5mC]*kA*kG*dG*dA*dG*dA*d[5mC]*dT*dA*dT*dA*d[5mC]*kA*kA*k[5mC]) [compound 1074934] , thanks. 74

# get_value(readout='YAP1 (% UTC)', item= 1076406 (antisense kA*kT*kT*dA*dT*dT*dT*dA*dA*dG*dA*d[5mC]*d[5mC]*kT*kG*kG) [compound 1076406] ) 4

Record request: YAP1 (% UTC) value, item 1075254 (kT*k[5mC]*k[5mC]*d[5mC]*dA*dA*dA*dA*dG*dT*d[5mC]*dA*dT*k[5mC]*kG*k[5mC]; antisense) [compound 1075254] 28

Would you kindly share the measured YAP1 (% UTC) for 1075606 (antisense kG*k[5mC]*kT*dA*dA*dA*d[5mC]*d[5mC]*dT*dA*d[5mC]*dA*d[5mC]*kG*k[5mC]*kT) [compound 1075606] ? 82

Requested read-out: YAP1 (% UTC). Entry: 1076054 (k[5mC]*kA*kT*dT*dA*dG*dA*d[5mC]*dT*dT*dT*d[5mC]*dT*kG*kT*k[5mC]; antisense) [compound 1076054] 21

I am curious: what YAP1 (% UTC) value has been reported for 1076246 (kT*k[5mC]*k[5mC]*dT*dA*dA*dA*dA*dA*dA*d[5mC]*dT*dA*kG*kT*kG; antisense) [compound 1076246] ? 75

# input substance: 1074582 (DNA kT*kA*kA*dA*d[5mC]*d[5mC]*dA*d[5mC]*dT*dA*dT*dA*dA*kA*kG*k[5mC]; antisense) [compound 1074582] ; wanted: its YAP1 (% UTC) 18

Would you kindly share the measured YAP1 (% UTC) for 1074966 (antisense kA*kT*kT*dG*dA*dA*dG*dT*dG*dT*dT*dT*dA*kG*kG*k[5mC]) [compound 1074966] ? 9

Form field: reported YAP1 (% UTC) of 958499 (ATTAGAGTATGTGGCA; 3-10-3 cEt gapmer, further chemistry not given here) [compound 958499] 1

For the substance 1075414 (antisense k[5mC]*kA*kT*dA*d[5mC]*dT*dA*dA*dT*d[5mC]*d[5mC]*d[5mC]*dT*k[5mC]*kT*kT) [compound 1075414] , what YAP1 (% UTC) is on record? 41

Entry 1074262 (antisense kG*k[5mC]*k[5mC]*dG*dA*dG*dT*dT*d[5mC]*dA*dT*d[5mC]*dA*kT*kA*kT) [compound 1074262] : reported YAP1 (% UTC) = ? 48

###

Test system: Yap1 mRNA
experimentalDetails: Antisense inhibition of human Yap1 in A-431 cells by cEt gapmers, single dose (Example 2, RTS4814)
Type: cell-based
conditionNotes: Table 19; A-431 cells, 5,000 cells per well, free uptake, 2,000 nM modified oligonucleotide, approx. 48 hours; RTS4814; normalized to RIBOGREEN; Yap1 mRNA as percent of untreated control
Strand notation (5' to 3'): a small letter for the sugar, then the base; units joined by * are phosphorothioate-linked, units joined directly phosphodiester-linked; [ ] holds rarer units or linkages, { } end groups; capitals alone tell only the bases. k = constrained ethyl (cEt); [5mC] = 5-methylcytosine; d = 2'-deoxy (DNA)
Each entry gets label 0 if its YAP1 (% UTC) stays under 20 % UTC, and label 1 if its YAP1 (% UTC) is 20 % UTC or above.

Could you tell me if the measured YAP1 (% UTC) of 1074693 (antisense k[5mC]*k[5mC]*k[5mC]*d[5mC]*d[5mC]*d[5mC]*d[5mC]*d[5mC]*dA*dA*dA*d[5mC]*dT*kT*kT*k[5mC]) [Compound 1074693] reaches 20 % UTC or more? label 1

Can 1075205 (antisense kA*kT*kT*dA*dA*dA*dT*dG*dA*dG*d[5mC]*dA*d[5mC]*k[5mC]*kA*k[5mC]) [Compound 1075205] be said to have YAP1 (% UTC) at or above 20 % UTC? label 1

hey, is YAP1 (% UTC) for this one >= 20 % UTC? 1075365 (k[5mC]*kA*k[5mC]*dG*dA*dA*dA*dA*dT*dA*dG*dT*dT*k[5mC]*kT*k[5mC]; antisense) [Compound 1075365] label 0

Please indicate if the recorded YAP1 (% UTC) for 1074821 (kG*kA*kA*dA*dA*dG*dT*dG*dT*dT*dA*dA*dG*k[5mC]*kA*k[5mC]; antisense) [Compound 1074821] meets or exceeds 20 % UTC. label 0

Reported YAP1 (% UTC) reaches at least 20 % UTC for 1075077 (antisense kT*kA*kT*dA*d[5mC]*dG*dG*dT*d[5mC]*d[5mC]*dA*dT*dA*kA*k[5mC]*kA) [Compound 1075077] ? label 1

Measured values drawn from patent US11214803B2 for this set.
